Listed next: entries and their corresponding IC50.
Subject Of Test: AAK1 (full-length human protein) (Homo sapiens, UniProt Q2M2I8)
Construct: NP_055726.2
Sequence (Q2M2I8 1-863 isoform Q2M2I8-2): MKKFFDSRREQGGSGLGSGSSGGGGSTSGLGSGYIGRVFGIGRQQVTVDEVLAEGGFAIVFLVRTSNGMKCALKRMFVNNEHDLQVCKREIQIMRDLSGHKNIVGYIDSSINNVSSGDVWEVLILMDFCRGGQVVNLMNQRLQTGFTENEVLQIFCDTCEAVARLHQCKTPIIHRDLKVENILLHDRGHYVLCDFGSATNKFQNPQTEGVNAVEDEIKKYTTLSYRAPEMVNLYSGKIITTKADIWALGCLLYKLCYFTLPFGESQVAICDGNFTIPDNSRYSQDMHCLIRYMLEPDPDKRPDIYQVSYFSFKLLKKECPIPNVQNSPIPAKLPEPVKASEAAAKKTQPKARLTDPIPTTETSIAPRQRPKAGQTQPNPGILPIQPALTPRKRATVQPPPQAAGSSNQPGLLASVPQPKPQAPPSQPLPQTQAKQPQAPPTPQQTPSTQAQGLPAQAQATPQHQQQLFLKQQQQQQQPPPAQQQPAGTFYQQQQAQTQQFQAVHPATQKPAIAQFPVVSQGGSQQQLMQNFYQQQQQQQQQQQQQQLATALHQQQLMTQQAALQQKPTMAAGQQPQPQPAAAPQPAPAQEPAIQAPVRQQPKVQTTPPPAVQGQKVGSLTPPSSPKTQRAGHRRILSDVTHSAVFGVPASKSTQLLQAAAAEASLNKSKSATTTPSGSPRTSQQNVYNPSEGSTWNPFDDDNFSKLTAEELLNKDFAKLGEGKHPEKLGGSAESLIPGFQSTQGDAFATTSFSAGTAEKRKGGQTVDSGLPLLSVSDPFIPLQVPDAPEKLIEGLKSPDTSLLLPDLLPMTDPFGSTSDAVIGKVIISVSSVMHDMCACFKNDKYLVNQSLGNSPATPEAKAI
Experimental Protocol: P81 filter plate assay
Assay type: biochemical
Study Conditions: 0.2 nM 2x AAK1, Mu2 substrate, 33P-ATP; numeric bounds

[
  {
    "Compound Structure String": "CC(C)OC(=O)N(C)CCCc1ccn2nccc2n1",
    "IC50": "> 100 nM"
  }
]

// below: IC50 requested for another compound
IN: Provide one value: measured IC50 of `COc1ncccc1-c1cnn2ccc(C3CCN(C(=O)OC(C)C)CC3)nc12`
OUT: > 300 nM

* * *

Measured IC50 values are reported for all entries that follow.
Subject Of Test: AAK1 (Homo sapiens)
Construct: expressed in transfected cells; host or cells: HEK293F
Experimental Protocol: HEK281 cell-based assay (phospho-mu2 Western blot in transfected HEK293F cells)
Study Conditions: HEK293F cells transfected with human AAK1 and AP2M1; 3 hours; class symbols; read-out: CBA IC50

Use the examples below as a reference point.
[
  {
    "Compound Structure String": "COc1ncccc1-c1cnn2ccc(-c3ccnc(OC(C)C)c3)nc12",
    "Test Readout": "IC50",
    "Reported": "≤ 10 nM"
  },
  {
    "Compound Structure String": "CC(C)CCn1ccc(-c2ccn3ncc(I)c3n2)cc1=O",
    "Test Readout": "IC50",
    "Reported": "≤ 10 nM"
  },
  {
    "Compound Structure String": "COc1ncccc1-c1cnn2ccc(CCCN(C)C(=O)OC(C)C)nc12",
    "Test Readout": "IC50",
    "Reported": "≤ 100 nM"
  }
]

Would you kindly look at the next entry?
IN: Enter recorded IC50 with AAK1 (Homo sapiens) for `CC(C)CCn1ccc(-c2ccn3ncc(Cl)c3n2)c(Cl)c1=O` here.
OUT: ≤ 100 nM

* * *

Subject Of Test: AAK1 (Homo sapiens, UniProt Q2M2I8)
Construct: expressed in transfected cells; host or cells: HEK293F
Experimental Protocol: HEK281 cell-based assay (phospho-mu2 Western blot in transfected HEK293F cells)
Study Conditions: HEK293F cells transfected with human AAK1 and AP2M1; 3 hours; class symbols; read-out: CBA IC50
pIC50: −log10 of the molar value.
pIC50: recorded values

IN: State its pIC50: `CC(C)CCn1ccc(-c2ccn3ncc(Cl)c3n2)cc1=O`
OUT: ≥ 8.00

IN: Tell me measured pIC50 for `CCOc1ncccc1-c1cnn2ccc(-c3ccn(CCC(C)C)c(=O)c3)nc12` please.
OUT: ≥ 8.00

IN: Report measured pIC50; entry is `COc1ncccc1-c1cnn2ccc(C3CCN(C(=O)OC(C)C)CC3)nc12`
OUT: ≥ 8.00

* * *

The following compounds are shown together with reported IC50 values.
Subject Of Test: AAK1 (full-length human protein) (Homo sapiens)
Construct: NP_055726.2
Experimental Protocol: P81 filter plate assay
Format: biochemical
Study Conditions: 0.2 nM 2x AAK1, Mu2 substrate, 33P-ATP; class symbols

Examples with answers:
[
  {
    "Compound Structure String": "COc1ccc(F)cc1-c1cnn2ccc(-c3ccn(CCC(C)(C)C)c(=O)c3)nc12",
    "IC50": "≤ 10 nM"
  },
  {
    "Compound Structure String": "COCCn1ccc(-c2ccn3ncc(-c4cccnc4OC)c3n2)cc1=O",
    "IC50": "≤ 10 nM"
  },
  {
    "Compound Structure String": "CC(C)CCn1ccc(-c2ccn3ncc(Cl)c3n2)cc1=O",
    "IC50": "≤ 100 nM"
  },
  {
    "Compound Structure String": "COc1nc(C)ccc1-c1cnn2ccc(-c3ccn(CCC(C)C)c(=O)c3)nc12",
    "IC50": "≤ 10 nM"
  }
]

IN: Give the reported IC50 for this compound. `COc1ncccc1-c1cnn2ccc(-c3ccn(CCC(C)(C)C)c(=O)c3)nc12`
OUT: ≤ 10 nM

IN: Fill in reported IC50 for this entry: `CCOc1ncccc1-c1cnn2ccc(-c3ccn(CCC(C)C)c(=O)c3)nc12`
OUT: ≤ 10 nM

IN: Using the record for `COc1nc(C)ccc1-c1cnn2ccc(-c3ccn(CCC(F)(F)F)c(=O)c3)nc12` , state its measured IC50.
OUT: ≤ 100 nM

IN: For the compound `CC(C)CCn1ccc(-c2ccn3ncc(I)c3n2)cc1=O` , report IC50.
OUT: ≤ 10 nM

IN: Kindly indicate its recorded IC50. Item: `COc1ccc(F)cc1-c1cnn2ccc(-c3ccn(CCC(F)(F)F)c(=O)c3)nc12`
OUT: ≤ 100 nM

IN: State its IC50 for this compound: `CC(C)CCn1ccc(-c2ccn3ncc(Br)c3n2)cc1=O`
OUT: ≤ 10 nM
